Parameter 'readout' = IC50; parameter 'system' = UniProt P20083.
Sequence (P20083 whole entry): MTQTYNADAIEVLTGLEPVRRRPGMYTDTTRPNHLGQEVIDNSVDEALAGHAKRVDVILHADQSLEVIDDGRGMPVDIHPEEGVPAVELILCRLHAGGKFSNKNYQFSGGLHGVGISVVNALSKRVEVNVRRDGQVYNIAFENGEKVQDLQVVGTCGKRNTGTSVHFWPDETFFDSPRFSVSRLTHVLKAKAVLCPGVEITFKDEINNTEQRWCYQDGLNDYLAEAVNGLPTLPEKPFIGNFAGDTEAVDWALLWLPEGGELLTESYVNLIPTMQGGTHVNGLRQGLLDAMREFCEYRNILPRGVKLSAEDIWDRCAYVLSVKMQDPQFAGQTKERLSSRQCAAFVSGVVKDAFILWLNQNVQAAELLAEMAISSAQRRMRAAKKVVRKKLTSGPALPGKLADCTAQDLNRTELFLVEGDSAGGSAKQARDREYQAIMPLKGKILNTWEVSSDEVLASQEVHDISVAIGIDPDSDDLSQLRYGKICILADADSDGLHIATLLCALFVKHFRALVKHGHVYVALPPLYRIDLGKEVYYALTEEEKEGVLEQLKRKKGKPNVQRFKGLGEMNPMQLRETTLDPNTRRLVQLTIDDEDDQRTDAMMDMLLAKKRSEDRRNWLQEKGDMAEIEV
Sequence (P0AFI2 whole entry partner): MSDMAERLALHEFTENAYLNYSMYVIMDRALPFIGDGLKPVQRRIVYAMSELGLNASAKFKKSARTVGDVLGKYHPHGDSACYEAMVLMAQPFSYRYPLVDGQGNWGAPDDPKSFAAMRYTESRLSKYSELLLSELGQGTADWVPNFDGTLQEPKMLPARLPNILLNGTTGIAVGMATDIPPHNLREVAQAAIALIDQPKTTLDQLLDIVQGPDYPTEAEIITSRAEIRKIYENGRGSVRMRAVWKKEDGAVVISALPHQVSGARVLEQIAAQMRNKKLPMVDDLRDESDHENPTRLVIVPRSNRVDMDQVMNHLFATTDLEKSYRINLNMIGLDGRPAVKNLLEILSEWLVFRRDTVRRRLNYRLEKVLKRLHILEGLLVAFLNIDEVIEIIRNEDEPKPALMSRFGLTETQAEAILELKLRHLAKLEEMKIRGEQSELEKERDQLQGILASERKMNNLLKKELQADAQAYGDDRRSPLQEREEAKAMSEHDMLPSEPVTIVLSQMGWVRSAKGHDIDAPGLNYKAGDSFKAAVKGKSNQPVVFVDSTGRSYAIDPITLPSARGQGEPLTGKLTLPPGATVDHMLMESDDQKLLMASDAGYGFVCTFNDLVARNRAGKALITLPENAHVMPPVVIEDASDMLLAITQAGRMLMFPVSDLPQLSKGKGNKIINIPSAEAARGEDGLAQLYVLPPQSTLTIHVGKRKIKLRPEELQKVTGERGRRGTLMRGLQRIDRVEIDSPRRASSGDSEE
Readout label: IC50

Compound | Readout label | Result value
Cc1[nH]c(C(=O)Nc2ccc(C(=O)N[C@@H](C)c3n[nH]c(=O)o3)cc2OCCN)c(Cl)c1Cl | IC50 | < 1000 nM
Cc1[nH]c(C(=O)Nc2ccc(C(=O)N[C@@H](C)C(=O)O)cc2OC(C)C)c(Cl)c1Cl | IC50 | < 1000 nM
Cc1[nH]c(C(=O)Nc2ccc(C(=O)N[C@@H](C)C(=O)O)cc2OCCN)c(Cl)c1Cl | IC50 | < 1000 nM
O=C(O)CNC(=O)c1ccc(NC(=O)c2cc(Br)c(Br)[nH]2)cc1OCc1ccccc1 [Compound 23a] | IC50 | 42000 nM
